Measurement Description: circular dichroism
Conditions Used: water; pH ns; 25 °C; 70 uM
*1 amine or outer side, *2 acyl side, *3 side chain or, on linkers, in order; H or OH if unused. Where a SMILES comes first, the peptide text is derived from it. Bridges are numbered along the chain shown (N, C = ends). [ ]: non-standard residue; d: D form. Benzene(1,3-(CH2SCH2CO)2) = O=C(CSCc1cccc(CSCC(=O)[*:2])c1)[*:1]; X4 = O=C(CSCCCCCSCC(=O)[*:2])[*:1]; S5 = C=CCCC[C@](C)(N)C(=O)O; dDap = NC[C@@H](N)C(=O)O; Dap = NC[C@H](N)C(=O)O
A collection of compounds and their measured helicity
Readout Type: helicity (%)

| Compound | Quantitative Result |
| --- | --- |
| CC[C@H](C)[C@@H]1NC(=O)[C@@H](NC(=O)[C@H](CCC(=O)O)NC(=O)[C@@H]2CCCN2C(=O)[C@H](CC(N)=O)NC(=O)[C@H](CCC(=O)O)NC(C)=O)CNC(=O)CSCc2cccc(c2)CSCC(=O)NC[C@@H](C(=O)N[C@@H](Cc2c[nH]cn2)C(=O)N[C@H](C(=O)N[C@@H](CCC(N)=O)C(=O)N[C@@H](CCCNC(=N)N)C(=O)N[C@H](C(=O)N[C@@H](CCSC)C(N)=O)C(C)C)C(C)C)NC(=O)[C@H](CC(=O)O)NC(=O)[C@H](CC(C)C)NC1=O | 46 |
| CC(=O)N[C@@H](CCC(N)=O)C(=O)N[C@@H](CO)C(=O)N[C@@H](CCC(N)=O)C(=O)N[C@@H](CCC(N)=O)C(=O)N[C@H](C(=O)N[C@@H](Cc1ccccc1)C(=O)N[C@H]1CNC(=O)CSCCCCCCCSCC(=O)NC[C@H](C(=O)N[C@@H](CCC(N)=O)C(=O)N[C@@H](CC(N)=O)C(N)=O)NC(=O)[C@H](CC(C)C)NC(=O)[C@H](CC(C)C)NC(=O)[C@H](CCCNC(=N)N)NC(=O)[C@H](Cc2c[nH]c3ccccc23)NC(=O)[C@H](CC(C)C)NC(=O)[C@H](CC(N)=O)NC1=O)[C@@H](C)O | 40 |
| CC[C@H](C)[C@@H]1NC(=O)[C@H](NC(=O)[C@H](CCC(=O)O)NC(=O)[C@@H]2CCCN2C(=O)[C@H](CC(N)=O)NC(=O)[C@H](CCC(=O)O)NC(C)=O)CNC(=O)CSCc2ccc(cc2)CSCC(=O)NC[C@H](C(=O)N[C@@H](Cc2c[nH]cn2)C(=O)N[C@H](C(=O)N[C@@H](CCC(N)=O)C(=O)N[C@@H](CCCNC(=N)N)C(=O)N[C@H](C(=O)N[C@@H](CCSC)C(N)=O)C(C)C)C(C)C)NC(=O)[C@H](CC(=O)O)NC(=O)[C@H](CC(C)C)NC1=O | 19 |
| CC[C@H](C)[C@@H]1NC(=O)[C@@H](NC(=O)[C@H](CCC(=O)O)NC(=O)[C@@H]2CCCN2C(=O)[C@H](CC(N)=O)NC(=O)[C@H](CCC(=O)O)NC(C)=O)CNC(=O)CSCc2ccc(cc2)CSCC(=O)NC[C@@H](C(=O)N[C@@H](Cc2c[nH]cn2)C(=O)N[C@H](C(=O)N[C@@H](CCC(N)=O)C(=O)N[C@@H](CCCNC(=N)N)C(=O)N[C@H](C(=O)N[C@@H](CCSC)C(N)=O)C(C)C)C(C)C)NC(=O)[C@H](CC(=O)O)NC(=O)[C@H](CC(C)C)NC1=O | 17 |
| CC(=O)N[C@@H](CCC(N)=O)C(=O)N[C@@H](CO)C(=O)N[C@@H](CCC(N)=O)C(=O)N[C@@H](CCC(N)=O)C(=O)N[C@H](C(=O)N[C@@H](Cc1ccccc1)C(=O)N[C@H]1CNC(=O)CSCc2ccc(cc2)-c2ccc(cc2)CSCC(=O)NC[C@H](C(=O)N[C@@H](CCC(N)=O)C(=O)N[C@@H](CC(N)=O)C(N)=O)NC(=O)[C@H](CC(C)C)NC(=O)[C@H](CC(C)C)NC(=O)[C@H](CCCNC(=N)N)NC(=O)[C@H](Cc2c[nH]c3ccccc23)NC(=O)[C@H](CC(C)C)NC(=O)[C@H](CC(N)=O)NC1=O)[C@@H](C)O | 18 |
| CC[C@H](C)[C@@H]1NC(=O)[C@@H](NC(=O)[C@@H](N)CCC(=O)O)CNC(=O)CSCc2cccc(c2)CSCC(=O)NC[C@H](C(=O)N[C@@H](Cc2c[nH]cn2)C(=O)O)NC(=O)[C@H](CC(=O)O)NC(=O)[C@H](CC(C)C)NC1=O (H-E[Dap]ILD[dDap]H-OH; linker 2-6 via Benzene(1,3-(CH2SCH2CO)2)) | 39 |
| CC[C@H](C)[C@@H]1NC(=O)[C@@H](NC(=O)[C@H](CCC(=O)O)NC(=O)[C@@H]2CCCN2C(=O)[C@H](CC(N)=O)NC(=O)[C@H](CCC(=O)O)NC(C)=O)CNC(=O)CSCCCCCSCC(=O)NC[C@@H](C(=O)N[C@@H](Cc2c[nH]cn2)C(=O)N[C@H](C(=O)N[C@@H](CCC(N)=O)C(=O)N[C@@H](CCCNC(=N)N)C(=O)N[C@H](C(=O)N[C@@H](CCSC)C(N)=O)C(C)C)C(C)C)NC(=O)[C@H](CC(=O)O)NC(=O)[C@H](CC(C)C)NC1=O (Ac-ENPE[Dap]ILD[Dap]HVQRVM-NH2; linker 5-9 via X4) | 24 |
| CC[C@H](C)[C@@H]1NC(=O)[C@@H](NC(=O)[C@@H](N)CCC(=O)O)CNC(=O)CSCc2cccc(c2)CSCC(=O)NC[C@@H](C(=O)N[C@@H](Cc2c[nH]cn2)C(=O)O)NC(=O)[C@H](CC(=O)O)NC(=O)[C@H](CC(C)C)NC1=O (H-E[Dap]ILD[Dap]H-OH; linker 2-6 via Benzene(1,3-(CH2SCH2CO)2)) | 41 |
| CC[C@H](C)[C@@H]1NC(=O)[C@@](C)(NC(=O)[C@H](CCC(=O)O)NC(=O)[C@@H]2CCCN2C(=O)[C@H](CC(N)=O)NC(=O)[C@H](CCC(=O)O)NC(C)=O)CCCC=CCCC[C@@](C)(C(=O)N[C@@H](Cc2c[nH]cn2)C(=O)N[C@H](C(=O)N[C@@H](CCC(N)=O)C(=O)N[C@@H](CCCNC(=N)N)C(=O)N[C@H](C(=O)N[C@@H](CCSC)C(N)=O)C(C)C)C(C)C)NC(=O)[C@H](CC(=O)O)NC(=O)[C@H](CC(C)C)NC1=O (Ac-ENPE[S5]ILD[S5]HVQRVM-NH2; staple 5-9) | 48 |
| CC[C@H](C)[C@@H]1NC(=O)[C@H](NC(=O)[C@H](CCC(=O)O)NC(=O)[C@@H]2CCCN2C(=O)[C@H](CC(N)=O)NC(=O)[C@H](CCC(=O)O)NC(C)=O)CNC(=O)CSCc2cccc(c2)CSCC(=O)NC[C@@H](C(=O)N[C@@H](Cc2c[nH]cn2)C(=O)N[C@H](C(=O)N[C@@H](CCC(N)=O)C(=O)N[C@@H](CCCNC(=N)N)C(=O)N[C@H](C(=O)N[C@@H](CCSC)C(N)=O)C(C)C)C(C)C)NC(=O)[C@H](CC(=O)O)NC(=O)[C@H](CC(C)C)NC1=O | 8 |
